self-splicing fitness (ln) values by entry
protocolDetails: self-splicing fitness, log relative to wild type (ln ratio); higher = more splicing; Tetrahymena group I intron in knt gene, E. coli kanamycin selection, DiMSum; sequences stand for … in CUCUCU…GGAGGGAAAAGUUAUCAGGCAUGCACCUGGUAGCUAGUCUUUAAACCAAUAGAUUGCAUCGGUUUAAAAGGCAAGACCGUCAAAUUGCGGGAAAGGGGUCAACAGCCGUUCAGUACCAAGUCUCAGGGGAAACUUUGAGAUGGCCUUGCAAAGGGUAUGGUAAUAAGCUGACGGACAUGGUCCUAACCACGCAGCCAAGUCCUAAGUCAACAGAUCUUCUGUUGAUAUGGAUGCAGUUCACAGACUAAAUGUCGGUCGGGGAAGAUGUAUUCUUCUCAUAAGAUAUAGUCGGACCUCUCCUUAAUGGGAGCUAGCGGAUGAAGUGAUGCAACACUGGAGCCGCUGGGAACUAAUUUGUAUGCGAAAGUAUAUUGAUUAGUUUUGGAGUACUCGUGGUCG;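 further: selection with 25 µg/mL kanamycin versus none on LB agar overnight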
measurementContext: 30 °C
propertyMeasured: self-splicing fitness (ln)

[
  {
    "polymerSequence": "AGCUAGCAAUAUUACGCAUG",
    "propertyMeasured": "self-splicing fitness (ln)",
    "assayResult": -2.12
  },
  {
    "polymerSequence": "GUCGAGCAAUAUUACGCAAG",
    "propertyMeasured": "self-splicing fitness (ln)",
    "assayResult": -3.6
  },
  {
    "polymerSequence": "CGGAAGCAAUAUUACGGGGG",
    "propertyMeasured": "self-splicing fitness (ln)",
    "assayResult": -3.72
  },
  {
    "polymerSequence": "CUGCAGCAAUAUUACGCUUG",
    "propertyMeasured": "self-splicing fitness (ln)",
    "assayResult": -3.55
  },
  {
    "polymerSequence": "CAAAAGCAAUAUUACGCAGU",
    "propertyMeasured": "self-splicing fitness (ln)",
    "assayResult": -4.31
  },
  {
    "polymerSequence": "UACCAGCAAUAUUACGCAUG",
    "propertyMeasured": "self-splicing fitness (ln)",
    "assayResult": -1.22
  },
  {
    "polymerSequence": "GGUUAGCAAUAUUACGGUAU",
    "propertyMeasured": "self-splicing fitness (ln)",
    "assayResult": -1.55
  }
]

----------
protocolDetails: self-splicing fitness, log relative to wild type (ln ratio); higher = more splicing; Tetrahymena group I intron in knt gene, E. coli kanamycin selection, DiMSum; sequences stand for … in CUCUCU…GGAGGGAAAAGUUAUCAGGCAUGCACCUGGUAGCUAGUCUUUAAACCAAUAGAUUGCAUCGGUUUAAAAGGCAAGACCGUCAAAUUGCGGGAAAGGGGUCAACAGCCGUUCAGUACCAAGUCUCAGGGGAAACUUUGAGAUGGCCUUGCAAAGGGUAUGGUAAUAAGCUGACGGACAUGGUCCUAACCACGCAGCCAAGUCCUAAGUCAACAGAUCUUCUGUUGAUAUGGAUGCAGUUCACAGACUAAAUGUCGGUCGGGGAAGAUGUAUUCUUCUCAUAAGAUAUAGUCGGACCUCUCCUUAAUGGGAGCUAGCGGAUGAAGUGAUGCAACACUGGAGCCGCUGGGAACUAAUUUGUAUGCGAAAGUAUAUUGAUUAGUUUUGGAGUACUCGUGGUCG
measurementContext: 30 °C

[
  {
    "polymerSequence": "GUCAAGCAAUAUUACGUUAC",
    "self-splicing fitness (ln)": -3.02
  },
  {
    "polymerSequence": "GGGCAGCAAUAUUACGCAGU",
    "self-splicing fitness (ln)": -0.715
  },
  {
    "polymerSequence": "CAGAAGCAAUAUUACGUUUC",
    "self-splicing fitness (ln)": -3.38
  },
  {
    "polymerSequence": "UUUAAGCAAUAUUACGUGCA",
    "self-splicing fitness (ln)": -1.06
  },
  {
    "polymerSequence": "GUAGAGCAAUAUUACGACCG",
    "self-splicing fitness (ln)": -1.28
  },
  {
    "polymerSequence": "ACGUAGCAAUAUUACGUCCG",
    "self-splicing fitness (ln)": -1.63
  },
  {
    "polymerSequence": "CGAAAGCAAUAUUACGUGUU",
    "self-splicing fitness (ln)": -4.1
  },
  {
    "polymerSequence": "AUCAAGCAAUAUUACGCACU",
    "self-splicing fitness (ln)": -0.00274
  },
  {
    "polymerSequence": "UCUCAGCAAUAUUACGAAUU",
    "self-splicing fitness (ln)": -3.12
  },
  {
    "polymerSequence": "GUAAAGCAAUAUUACGCACA",
    "self-splicing fitness (ln)": 0.186
  },
  {
    "polymerSequence": "CUAAAGCAAUAUUACGUGGA",
    "self-splicing fitness (ln)": -3.7
  },
  {
    "polymerSequence": "UAUAAGCAAUAUUACGGAUG",
    "self-splicing fitness (ln)": -0.677
  },
  {
    "polymerSequence": "ACGUAGCAAUAUUACGCUUG",
    "self-splicing fitness (ln)": -1.26
  },
  {
    "polymerSequence": "UAAUAGCAAUAUUACGACGU",
    "self-splicing fitness (ln)": -3.74
  },
  {
    "polymerSequence": "AAAAAGCAAUAUUACGGGCC",
    "self-splicing fitness (ln)": -1.8
  },
  {
    "polymerSequence": "CGUUAGCAAUAUUACGUAUG",
    "self-splicing fitness (ln)": -2.12
  },
  {
    "polymerSequence": "GUUCAGCAAUAUUACGUACG",
    "self-splicing fitness (ln)": -1.32
  },
  {
    "polymerSequence": "GGAGAGCAAUAUUACGAUGA",
    "self-splicing fitness (ln)": -2.47
  },
  {
    "polymerSequence": "CAGCAGCAAUAUUACGACAC",
    "self-splicing fitness (ln)": -2.83
  },
  {
    "polymerSequence": "CUUAAGCAAUAUUACGUUAG",
    "self-splicing fitness (ln)": -3.59
  },
  {
    "polymerSequence": "AGAUAGCAAUAUUACGCACA",
    "self-splicing fitness (ln)": -0.827
  },
  {
    "polymerSequence": "AUCCAGCAAUAUUACGGCCA",
    "self-splicing fitness (ln)": -0.362
  },
  {
    "polymerSequence": "AGCUAGCAAUAUUACGAUUG",
    "self-splicing fitness (ln)": -2.89
  },
  {
    "polymerSequence": "AGCCAGCAAUAUUACGUCCG",
    "self-splicing fitness (ln)": -3.12
  },
  {
    "polymerSequence": "AACAAGCAAUAUUACGUACU",
    "self-splicing fitness (ln)": -0.11
  },
  {
    "polymerSequence": "UUGUAGCAAUAUUACGAGAG",
    "self-splicing fitness (ln)": -2.07
  },
  {
    "polymerSequence": "GAUGAGCAAUAUUACGGUAC",
    "self-splicing fitness (ln)": -5.2
  },
  {
    "polymerSequence": "AAGUAGCAAUAUUACGAAUU",
    "self-splicing fitness (ln)": -1.94
  }
]
